Cited source: patent US20110300138A1

Target: T1, thyroid stimulating hormone receptor (full length human TSHR) (human, UniProt P16473 22-764)
T1 construct: Full length TSHR coated onto plastic tubes (TSHR coated tubes, as in WO2004/050708A2); also called TSH receptor
Assay: competitor ^125I-K1-70 IgG, TSHR coated tubes; 0.01 µg/mL in assay buffer
Observable: Inhibition of binding (%)

| Binder | Experimental Value |
| --- | --- |
| K1-18 Fab (Fab, V domains shown) VH: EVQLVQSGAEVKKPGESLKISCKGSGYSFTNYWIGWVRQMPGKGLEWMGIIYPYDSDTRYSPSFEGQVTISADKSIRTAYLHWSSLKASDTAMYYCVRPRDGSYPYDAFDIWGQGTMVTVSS VL: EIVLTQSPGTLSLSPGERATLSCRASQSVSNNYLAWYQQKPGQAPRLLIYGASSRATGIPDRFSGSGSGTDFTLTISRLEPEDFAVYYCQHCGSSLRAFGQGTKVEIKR | 23.7 |
| K1-18 IgG (antibody, V domains shown, Human IgG1 kappa purified from hetero-hybridoma supernatant; it is not part of the secreted protein; also called human monoclonal TSHR autoantibody K1-18 (stimulating)) VH: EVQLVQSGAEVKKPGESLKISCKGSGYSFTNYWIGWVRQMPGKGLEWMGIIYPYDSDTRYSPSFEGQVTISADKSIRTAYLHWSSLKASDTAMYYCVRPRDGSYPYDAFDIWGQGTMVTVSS VL: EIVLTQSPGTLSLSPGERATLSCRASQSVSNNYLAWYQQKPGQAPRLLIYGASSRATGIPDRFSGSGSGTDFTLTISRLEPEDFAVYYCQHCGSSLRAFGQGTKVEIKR | 30.2 |
| K1-70 IgG (antibody, V domains shown, Human IgG1 lambda purified from hetero-hybridoma supernatant) VH: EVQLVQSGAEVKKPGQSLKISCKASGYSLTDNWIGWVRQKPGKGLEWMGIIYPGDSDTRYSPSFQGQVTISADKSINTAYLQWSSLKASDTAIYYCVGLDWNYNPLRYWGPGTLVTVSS VL: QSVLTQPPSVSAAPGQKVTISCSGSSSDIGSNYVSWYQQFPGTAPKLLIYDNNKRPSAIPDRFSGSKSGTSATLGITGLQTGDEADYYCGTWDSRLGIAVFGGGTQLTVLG | 50.9 |
| K1-70 Fab (Fab, V domains shown) VH: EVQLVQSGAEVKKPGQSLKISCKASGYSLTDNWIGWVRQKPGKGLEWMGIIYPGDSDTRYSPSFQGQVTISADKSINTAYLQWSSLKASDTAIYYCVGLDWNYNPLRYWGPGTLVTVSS VL: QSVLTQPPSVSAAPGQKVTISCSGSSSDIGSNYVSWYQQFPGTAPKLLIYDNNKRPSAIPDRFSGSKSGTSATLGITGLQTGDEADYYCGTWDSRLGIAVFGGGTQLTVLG | 64.8 |
